Molecular target: Protein farnesyltransferase (Sus scrofa)
Assay: Inhibition of pig brain farnesyl transferase
Conditions: read-out: I50
pIC50: −log10 of the molar value.
assay-endpoint: pIC50

INSERT INTO assay_data (compound, measured_number) VALUES
  ('CC(C)=CCC/C(C)=C/CC/C(C)=C/CNC(=O)C(CP(=O)(O)O)C(=O)O (stereo unspecified)', 7.12);

###

Target: Protein farnesyltransferase (Sus scrofa)
Assay: Inhibition of pig brain farnesyl transferase
Settings: read-out: I50
pIC50: −log10 of the molar value.
assay-endpoint: pIC50

INSERT INTO results (line_notation, assay_endpoint, measured_number) VALUES
  ('CC(C)=CCC/C(C)=C/CC/C(C)=C/CNC(=O)CC(=O)O', 'pIC50', 3.94),
  ('CC(C)=CCC/C(C)=C/CC/C(C)=C/CNC(=O)CCP(=O)(O)O', 'pIC50', 5.34),
  ('CC(C)=CCC/C(C)=C/CC/C(C)=C/CNC(=O)CP(=O)(O)O', 'pIC50', 4.38);
